target: TrkA (Homo sapiens); experiment: TrkA inhibition screen; type: biochemical; details: Table 6, introduced as Ki values; ATP at or close to Km
Sequence (P04629 33-796, species assumed): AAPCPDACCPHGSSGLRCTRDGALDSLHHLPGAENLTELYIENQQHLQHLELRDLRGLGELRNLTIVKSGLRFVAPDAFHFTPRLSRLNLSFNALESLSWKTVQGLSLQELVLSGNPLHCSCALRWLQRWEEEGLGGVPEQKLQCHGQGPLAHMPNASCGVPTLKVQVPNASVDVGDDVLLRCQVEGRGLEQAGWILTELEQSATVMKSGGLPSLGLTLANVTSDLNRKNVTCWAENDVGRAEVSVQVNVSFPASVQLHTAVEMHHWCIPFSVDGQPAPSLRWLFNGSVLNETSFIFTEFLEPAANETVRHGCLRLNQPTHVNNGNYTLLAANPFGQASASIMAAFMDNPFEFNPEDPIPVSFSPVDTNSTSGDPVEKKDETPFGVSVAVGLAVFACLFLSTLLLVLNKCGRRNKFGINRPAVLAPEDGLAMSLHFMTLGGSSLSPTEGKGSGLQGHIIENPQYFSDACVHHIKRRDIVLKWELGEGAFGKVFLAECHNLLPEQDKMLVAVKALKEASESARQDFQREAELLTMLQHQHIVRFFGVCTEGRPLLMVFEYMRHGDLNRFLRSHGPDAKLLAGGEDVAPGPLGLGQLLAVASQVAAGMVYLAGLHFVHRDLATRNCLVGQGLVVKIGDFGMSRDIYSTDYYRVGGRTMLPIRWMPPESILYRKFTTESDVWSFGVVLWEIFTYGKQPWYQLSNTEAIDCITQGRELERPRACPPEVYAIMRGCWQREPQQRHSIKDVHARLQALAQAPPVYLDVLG
pIC50: −log10 of the molar value.
quantity: pIC50

>>> value_reported("Cc1cc(Nc2cc(N3CC(F)(C4CC4)C3)nc(Sc3ccc(NC(=O)CC(F)(F)F)cc3)n2)[nH]n1")
8.30

###

molecular target: Aurora-1 (Aurora B) (Homo sapiens, UniProt Q96GD4); assay: Aurora-1 (Aurora B) inhibition assay (radiometric); format: biochemical; conditions: 800 μM ATP; read-out: Aurora B Ki
Sequence (Q96GD4 whole entry): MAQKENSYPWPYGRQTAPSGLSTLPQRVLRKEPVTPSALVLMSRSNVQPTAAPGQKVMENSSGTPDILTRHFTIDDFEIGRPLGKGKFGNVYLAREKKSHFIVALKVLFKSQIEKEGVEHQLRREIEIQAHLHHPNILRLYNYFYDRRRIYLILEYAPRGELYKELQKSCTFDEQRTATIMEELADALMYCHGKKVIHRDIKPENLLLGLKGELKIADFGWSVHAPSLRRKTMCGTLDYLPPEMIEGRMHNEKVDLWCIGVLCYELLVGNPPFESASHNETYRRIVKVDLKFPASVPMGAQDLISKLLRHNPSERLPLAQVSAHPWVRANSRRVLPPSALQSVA
quantity: Ki (nM)

>>> value_reported("CCC(=O)Nc1ccc(Sc2nc(Nc3cc(C)n[nH]3)cc(N3CC(O)(C4CC4)C3)n2)cc1")
7.6
>>> value_reported("Cc1cc(Nc2cc(N3CC(O)(C4CC4)C3)nc(Sc3ccc(NC(=O)C4CC4(F)F)cc3)n2)[nH]n1 (stereo not shown)")
3
>>> value_reported("CCC(=O)Nc1ccc(Sc2nc(Nc3cc(C)n[nH]3)cc(N3CC(O)(CC)C3)n2)cc1")
15
>>> value_reported("CCC(=O)Nc1ccc(Sc2nc(Nc3cc(C)n[nH]3)cc(N3CC(O)(CC(C)(C)C)C3)n2)cc1")
7
>>> value_reported("Cc1cc(Nc2cc(N3CC(F)(C4CC4)C3)nc(Sc3ccc(NC(=O)C4CC4(F)F)cc3)n2)[nH]n1 (stereo not shown)")
18
>>> value_reported("Cc1cc(Nc2cc(N3CC(O)(C4CC4)C3)nc(Sc3ccc(NC(=O)C4CC4)cc3F)n2)[nH]n1")
9
>>> value_reported("CCC(=O)Nc1ccc(Sc2nc(Nc3cc(C)n[nH]3)cc(N3CC(O)(C(C)C)C3)n2)cc1")
14
>>> value_reported("Cc1cc(Nc2cc(N3CC(F)(C4CC4)C3)nc(Sc3ccc(NC(=O)CC(F)(F)F)nc3)n2)[nH]n1")
9.5
>>> value_reported("Cc1cc(Nc2cc(N3CC(F)(C4CC4)C3)nc(Sc3ccc(NC(=O)CC4CC4)cc3)n2)[nH]n1")
21
>>> value_reported("Cc1cc(Nc2cc(N3CC(F)(C4CC4)C3)nc(Sc3ccc(NC(=O)CCC(F)(F)F)cc3)n2)[nH]n1")
12
>>> value_reported("Cc1cc(Nc2cc(N3CC(F)(C4CC4)C3)nc(Sc3ccc(NC(=O)CC(F)(F)F)cc3)n2)[nH]n1")
6.8
>>> value_reported("Cc1cc(Nc2cc(N3CC(O)(C4CC4)C3)nc(Sc3ccc(NC(=O)C4CC4)cc3)n2)n[nH]1")
7.1
>>> value_reported("Cc1cc(Nc2cc(N3CC(F)(C4CC4)C3)nc(Sc3ccc(NC(=O)C4CC4)cc3)n2)n[nH]1")
22
>>> value_reported("CCC(=O)Nc1ccc(Sc2nc(Nc3cc(C)n[nH]3)cc(N3CC(O)(C4CCCC4)C3)n2)cc1")
6.5
>>> value_reported("CCC(=O)Nc1ccc(Sc2nc(Nc3cc(C)[nH]n3)cc(N3CC(F)(C4CC4)C3)n2)cc1")
24
>>> value_reported("O=C(Nc1ccc(Sc2nc(Nc3cc(C4CC4)[nH]n3)cc(N3CC(O)(C4CC4)C3)n2)cc1)C1CC1")
7
>>> value_reported("Cc1cc(Nc2cc(N3CC(F)(C4CC4)C3)nc(Sc3ccc(NC(=O)C4(C(F)(F)F)CC4)cc3)n2)[nH]n1")
9.6

Hey, just so you know, these numbers are from patent US8129399B2.
